These measurements were taken from patent US4710500A.

Test: Catalepsy
Type: in vivo, rat
Settings: po; rat; 1-6 h
Where a name gives a salt, the structure may show the parent alone.
Each record here notes measured Catalep. ED50(po) 1-6 h.
Please don't drop the unit; write it after the number.

# count of solved cases: 5
Which Catalep. ED50(po) 1-6 h is reported for this compound? OCCN1CCN(CC/C=C2/c3ccccc3Sc3ccc(C(F)(F)F)cc32)CC1 [Cis(Z)Flupentixol, reference compound] 2.4 µmol/kg

Which Catalep. ED50(po) 1-6 h is reported for this compound? CN1CCN(c2cn(-c3ccccc3)c3ccc(Cl)cc23)CC1 [Lu 23-015, reference compound] 12.0 µmol/kg

Which Catalep. ED50(po) 1-6 h is reported for this compound? "Cc1ccc2c(c1)c(C1=CCN(C)CC1)cn2-c1ccc(F)cc1.Cl" 0.43 µmol/kg

Which Catalep. ED50(po) 1-6 h is reported for this compound? "O=[N+]([O-])c1ccc2c(c1)c(C1=CCN(CCO)CC1)cn2-c1ccc(F)cc1" 0.21 µmol/kg

Which Catalep. ED50(po) 1-6 h is reported for this compound? O=C1NCCN1CCN1CCN(c2cn(-c3ccc(F)cc3)c3ccc(C(F)(F)F)cc23)CC1 [Lu 23-001, dihydrobromide] 1.2 µmol/kg

Next:
Which Catalep. ED50(po) 1-6 h is reported for this compound? OCCN1CCN([C@@H]2C[C@@H](c3ccc(F)cc3)c3ccc(C(F)(F)F)cc32)CC1 (racemic) [Tefludazine, reference compound] 0.61 µmol/kg

Which Catalep. ED50(po) 1-6 h is reported for this compound? "O=C1OCCN1CCN1CC=C(c2cn(-c3ccc(F)cc3)c3ccc([N+](=O)[O-])cc23)CC1" 1.1 µmol/kg
